System: Erk1/2
Assay: Western blot of Erk1/2 phosphorylation in LnCAP cells
Assay type: cell-based, human
Settings: inhibitor 30 min (100 nM flutamide, 20 μM AG1478, 5 μM Erlotinib, 20 μM PP2, 20 μM galardin) before 25 nM DHT 30 min
Measured Metric: DHT-induced Erk1/2 phosphorylation

Line Notation	Target System	Measured Metric	Recorded Measurement
COc1cc2ncnc(Nc3cccc(Cl)c3)c2cc1OC	Erk1/2	DHT-induced Erk1/2 phosphorylation	blocked
CNC(=O)[C@H](Cc1c[nH]c2ccccc12)NC(=O)[C@@H](CC(=O)NO)CC(C)C	Erk1/2	DHT-induced Erk1/2 phosphorylation	block
CC(C)(C)n1nc(-c2ccc(Cl)cc2)c2c(N)ncnc21	Erk1/2	DHT-induced Erk1/2 phosphorylation	blocked
C#Cc1cccc(Nc2ncnc3cc(OCCOC)c(OCCOC)cc23)c1	Erk1/2	DHT-induced Erk1/2 phosphorylation	blocked
